Tested on: SN12C renal
EXPERIMENTAL_DETAILS: NCI tumour cell line growth inhibition, 48 h
MEASUREMENT_TYPE: TGI

CCOC(=O)C(=O)Nc1cc(Cl)c(Cl)cc1Cl
> 100 µM
COCCOC(=O)NCn1cc(-c2ccccc2)nn1
> 100 µM
Cc1csc(NNC(N)=O)n1
> 100 µM

Considering "COc1ccc2c3c([nH]c(=O)c2c1C(=O)O)-c1ccccc1CC3" , its TGI with SN12C renal was recorded as > 100 µM

# TGI measured on SN12C renal for item "COc1cc(-n2cc(-c3ccccc3)[nH]c2=O)cc(OC)c1OC" = > 100 µM

Entry "COc1ccc(/C(C)=N/NC(=O)CSc2nc3ccccc3c(=O)n2CCc2ccc(S(N)(=O)=O)cc2)cc1" under SN12C renal had TGI of 3.75 µM

# "COc1ccc(NC(=S)NNC(=O)c2nsc3ccccc23)cc1" with SN12C renal: TGI is > 100 µM

The observed TGI for "OC(c1ccc(Cl)cc1)(c1ccc(Cl)cc1)c1cncnc1" when tested with SN12C renal stands at 80.3 µM

Reading of TGI for "C/C=C/C/C=C/[C@H](C)C[C@H](O)[C@@H]1C[C@@H]2O[C@H]2/C=C/[C@@H]2OC(C)(C)O[C@H]2/C=C/C[C@H](C)CC(=O)O1" with SN12C renal: > 100 µM

Given the compound "COC(=O)[C@H](Cc1ccccc1)NC(=O)N(CCC#N)CCCCN(CCC#N)C(=O)N[C@@H](Cc1ccccc1)C(=O)OC" and test system SN12C renal, the measured TGI is > 100 µM

---

System: LXFL 529 NSCLC
EXPERIMENTAL_DETAILS: NCI tumour cell line growth inhibition, 48 h
MEASUREMENT_TYPE: TGI

A selection of reference data follows.
C/C(=N\NC(=O)C[N+](C)(C)C)c1sc(-c2cccnc2)nc1C
> 100 µM
CCC/C=C\C=C\C1(NS(=O)(=O)c2ccc(C)cc2)CCC(C(C)(C)C)CC1 (stereo unspecified)
> 100 µM
Cc1ccc(S(=O)(=O)NC(=O)NCCc2ccccc2)cc1
> 100 µM

I looked up "COC(=O)CCC(=O)N1C/C(=C\c2ccccc2)C(=O)/C(=C/c2ccccc2)C1" and its TGI for LXFL 529 NSCLC was 4.13 µM

Value sought: TGI, system LXFL 529 NSCLC, item "C[P+](C)(C)C" . Result: > 100 µM

Record O=C1C(=C2CCCC2)CCC1CN1CCCCC1 (stereo unspecified) has LXFL 529 NSCLC TGI equal to 26.2 µM

Tested on LXFL 529 NSCLC, the item CC1(C)CCCC2(C)C3C(O)CC2(C)C(O)C31 (stereo unspecified) showed TGI equal to > 100 µM

The observed TGI for "Cc1ccccc1NC(=O)/C=N/O" when tested with LXFL 529 NSCLC stands at > 100 µM

# [N-]=[N+]=NC1(c2ccccc2)C(=O)C(Cl)=C(c2ccccc2)N(c2ccccc2)C1=O (stereo unspecified) with LXFL 529 NSCLC: TGI is > 100 µM

Field TGI (system: LXFL 529 NSCLC) for entry "Cc1cc(N(CCC#N)CCC#N)ccc1N=Nc1cc(Cl)ccc1Cl" = 3.35 µM

Hey, LXFL 529 NSCLC data for O=C1CC(c2c(-c3ccccc3)[nH]c3ccccc23)C(=O)N1c1ccccc1 (stereo unspecified) : TGI came out at > 100 µM
